- procedure_summary: isobaric coefficient of expansion
- details: 318.15 K; 45000 kPa; Liquid; Microcalorimeter
quantity: isobaric coefficient of expansion

INSERT INTO assay_data (molecule, value_observed) VALUES
  ('CCn1cc[n+](C)c1.O=S(=O)([N-]S(=O)(=O)C(F)(F)F)C(F)(F)F', '0.000582 1/K'),
  ('CCCCCCCC[n+]1ccn(C)c1.F[B-](F)(F)F [1-methyl-3-octylimidazolium tetrafluoroborate]', '0.000537 1/K'),
  ('CCCCCC[n+]1ccn(C)c1.O=S(=O)([N-]S(=O)(=O)C(F)(F)F)C(F)(F)F', '0.000578 1/K'),
  ('CCCC[n+]1cccc(C)c1.F[B-](F)(F)F [1-butyl-3-methylpyridinium tetrafluoroborate]', '0.000539 1/K'),
  ('CCCCCCn1cc[n+](C)c1.F[B-](F)(F)F [1-hexyl-3-methylimidazolium tetrafluoroborate]', '0.000537 1/K'),
  ('CCn1cc[n+](C)c1.F[B-](F)(F)F [1-ethyl-3-methylimidazolium tetrafluoroborate]', '0.000537 1/K');

The origin of these recorded values is the NIST ThermoML archive (doi:10.1021/je900482x).
